# Tested on: NCI-H196 complex spheroid viability
# METHOD DESCRIPTION: Anticancer human tumor NCI-H196 cell line growth inhibition [LSD1]; active = viability on the fitted dose curve at most 10% of control; inactive = the rest;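 note: spheroids exposed to agents for 7 days before readout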
# CONDITION SUMMARY: second compound 3.16 µM; first compound 0.1 µM
Outcome codes: YES for active, NO for inactive

MOLECULE: CC(C)c1c(-c2ccccc2)nc2c(C#N)c[nH]n2c1=O + NC1CC1c1ccc(-c2cccc(O)c2)cc1
ASSIGNED CATEGORY: NO
//
MOLECULE: CC(C)c1c(-c2ccccc2)nc2c(C#N)c[nH]n2c1=O + NC1CCC(NC2CC2c2ccccc2)CC1
ASSIGNED CATEGORY: NO
//
MOLECULE: O=C(c1cc(Cc2n[nH]c(=O)c3ccccc23)ccc1F)N1CCN(C(=O)C2CC2)CC1 + NC1CC1c1ccc(-c2cccc(O)c2)cc1
ASSIGNED CATEGORY: NO
//
MOLECULE: CC(C)CC(NC(=O)C(Cc1ccccc1)NC(=O)c1cnccn1)B(O)O (stereo not given) + NC1CCC(NC2CC2c2ccccc2)CC1
ASSIGNED CATEGORY: YES
//
MOLECULE: COc1cc(Nc2ncc3c(n2)-c2ccc(Cl)cc2C(c2c(F)cccc2OC)=NC3)ccc1C(=O)O + NC1CCC(NC2CC2c2ccccc2)CC1
ASSIGNED CATEGORY: NO

Hello, the source for this data is PubChem BioAssay AID1918958, in case you need it.
